- System: CD74-ROS1 Ba/F3 (Homo sapiens)
- Construct: fused on or other part: P04233 (HLA class II histocompatibility antigen gamma chain)
- Sequence (P08922 whole entry, change not shown, the tested form may be a part): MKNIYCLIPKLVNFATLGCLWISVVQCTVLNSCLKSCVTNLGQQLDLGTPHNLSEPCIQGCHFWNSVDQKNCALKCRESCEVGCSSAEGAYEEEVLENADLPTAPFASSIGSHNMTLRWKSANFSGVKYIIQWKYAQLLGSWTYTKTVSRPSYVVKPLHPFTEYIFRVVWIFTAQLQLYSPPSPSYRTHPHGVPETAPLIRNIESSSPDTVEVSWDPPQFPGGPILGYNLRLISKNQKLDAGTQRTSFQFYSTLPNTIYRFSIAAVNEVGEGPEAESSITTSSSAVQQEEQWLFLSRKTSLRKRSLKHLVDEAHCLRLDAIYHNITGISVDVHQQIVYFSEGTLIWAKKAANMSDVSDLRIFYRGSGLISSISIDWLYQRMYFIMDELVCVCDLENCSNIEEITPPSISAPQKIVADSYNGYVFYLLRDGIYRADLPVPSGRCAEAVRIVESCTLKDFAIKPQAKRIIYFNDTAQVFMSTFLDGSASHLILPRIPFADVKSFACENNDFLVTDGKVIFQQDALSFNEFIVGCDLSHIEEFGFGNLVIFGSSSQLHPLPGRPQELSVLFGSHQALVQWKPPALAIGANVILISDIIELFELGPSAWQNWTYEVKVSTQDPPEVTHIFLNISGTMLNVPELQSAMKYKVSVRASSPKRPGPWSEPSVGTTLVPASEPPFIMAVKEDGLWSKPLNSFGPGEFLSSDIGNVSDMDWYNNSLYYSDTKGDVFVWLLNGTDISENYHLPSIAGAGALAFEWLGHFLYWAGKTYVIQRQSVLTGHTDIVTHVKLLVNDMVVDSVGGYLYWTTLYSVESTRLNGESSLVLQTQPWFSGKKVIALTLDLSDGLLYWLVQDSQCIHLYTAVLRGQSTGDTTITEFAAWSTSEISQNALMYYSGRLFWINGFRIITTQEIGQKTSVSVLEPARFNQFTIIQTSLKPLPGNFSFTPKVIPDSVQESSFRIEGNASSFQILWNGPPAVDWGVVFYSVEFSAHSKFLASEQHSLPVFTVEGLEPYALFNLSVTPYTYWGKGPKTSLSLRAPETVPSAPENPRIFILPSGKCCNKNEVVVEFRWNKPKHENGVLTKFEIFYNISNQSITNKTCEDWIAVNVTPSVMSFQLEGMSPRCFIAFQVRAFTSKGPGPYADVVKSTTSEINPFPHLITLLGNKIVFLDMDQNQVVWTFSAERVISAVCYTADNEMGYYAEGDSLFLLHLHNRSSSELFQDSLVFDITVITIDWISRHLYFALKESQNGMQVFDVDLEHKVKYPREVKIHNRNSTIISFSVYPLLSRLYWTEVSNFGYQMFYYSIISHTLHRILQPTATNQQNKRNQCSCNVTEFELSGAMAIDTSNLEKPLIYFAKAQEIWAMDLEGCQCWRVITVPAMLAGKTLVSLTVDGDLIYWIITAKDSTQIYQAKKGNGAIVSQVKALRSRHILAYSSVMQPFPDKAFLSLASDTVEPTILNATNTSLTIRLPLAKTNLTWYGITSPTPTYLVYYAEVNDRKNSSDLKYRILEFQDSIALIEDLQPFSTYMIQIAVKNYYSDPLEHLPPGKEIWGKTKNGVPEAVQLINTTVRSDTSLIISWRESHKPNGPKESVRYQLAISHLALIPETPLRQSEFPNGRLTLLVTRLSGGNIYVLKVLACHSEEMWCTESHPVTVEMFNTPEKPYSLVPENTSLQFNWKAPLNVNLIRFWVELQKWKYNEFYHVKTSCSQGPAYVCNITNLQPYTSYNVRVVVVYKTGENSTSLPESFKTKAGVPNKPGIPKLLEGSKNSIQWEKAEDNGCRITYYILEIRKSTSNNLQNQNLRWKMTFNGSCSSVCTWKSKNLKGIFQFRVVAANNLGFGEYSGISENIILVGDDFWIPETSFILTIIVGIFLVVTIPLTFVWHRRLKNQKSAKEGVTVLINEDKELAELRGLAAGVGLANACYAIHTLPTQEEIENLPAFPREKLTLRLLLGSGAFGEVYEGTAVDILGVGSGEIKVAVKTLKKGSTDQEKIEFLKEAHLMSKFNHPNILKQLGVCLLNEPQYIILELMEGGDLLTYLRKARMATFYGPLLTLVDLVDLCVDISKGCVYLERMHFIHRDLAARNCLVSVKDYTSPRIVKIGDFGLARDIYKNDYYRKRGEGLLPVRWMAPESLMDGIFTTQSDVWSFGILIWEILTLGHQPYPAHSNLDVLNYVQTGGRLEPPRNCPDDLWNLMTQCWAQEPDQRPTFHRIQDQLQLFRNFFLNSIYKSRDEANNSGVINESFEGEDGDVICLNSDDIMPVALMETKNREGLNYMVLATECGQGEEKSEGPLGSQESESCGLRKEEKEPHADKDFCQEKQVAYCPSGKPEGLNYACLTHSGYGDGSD
- Experiment notes: Cell proliferation assay, CD74-ROS1 Ba/F3 stable cell line (CellTiter-Glo)
- Format: cell-based
- Condition description: Ba/F3-CD74-ROS1 wild type cells, 72 hours compound incubation; read-out: Cell Proliferation IC50 CD74-ROS1 Ba/F3
Catalogue of molecules with associated GI50
Mention the unit after the number when you answer.

Worked examples, 2 molecules total:
| Molecule | GI50 |
| --- | --- |
| C[C@H]1Nc2ccn3ncc(c3n2)C(=O)NC[C@H](CO)Oc2ccc(F)cc21 [Compound 5] | 27.9 nM |
| C[C@H]1Nc2ccn3ncc(c3n2)C(=O)NC[C@H](CF)Oc2ccc(F)cc21 [Compound 9] | 0.2 nM |

For reference, reported GI50 for C[C@H]1Nc2ccn3ncc(c3n2)C(=O)NC[C@H](C(F)F)Oc2ccc(F)cc21 [Compound 18] stands at 0.2 nM

For reference, reported GI50 for O=C1NCCOc2ccc(F)cc2[C@@H](CCF)Nc2ccn3ncc1c3n2 [Compound 23] stands at 5.1 nM

For reference, reported GI50 for C[C@H]1Nc2ccn3ncc(c3n2)C(=O)N[C@@H](CO)COc2ccc(F)cc21 [Compound 6] stands at 2.8 nM

For reference, reported GI50 for CNC(=O)[C@@H]1CNC(=O)c2cnn3ccc(nc23)N[C@H](C)c2cc(F)ccc2O1 [Compound 14] stands at 300 nM

For reference, reported GI50 for CC[C@H]1Nc2ccn3ncc(c3n2)C(=O)NCCOc2ccc(F)cc21 [Compound 19] stands at 0.5 nM

For reference, reported GI50 for CC[C@H]1CNC(=O)c2cnn3ccc(nc23)N[C@H](C)c2cc(F)ccc2O1 [Compound 3] stands at 0.2 nM

For reference, reported GI50 for CC(C)(O)[C@H]1Nc2ccn3ncc(c3n2)C(=O)NCCOc2ccc(F)cc21 [Compound 24] stands at 8 nM

For reference, reported GI50 for C[C@H]1Nc2ccn3ncc(c3n2)C(=O)NC[C@@H](CF)Oc2ccc(F)cc21 [Compound 10] stands at 0.2 nM

* * *

- System: Colorectal cell lines KM 12 (harboring endogenous TPM3-TRKA fusion gene)
- Experiment notes: Cell proliferation assay, KM12 cells (CellTiter-Glo)
- Format: cell-based
- Condition description: Homo sapiens, 72 hours incubation
- Protocol: Cell Proliferation Assays. Colorectal cell lines KM 12 (harboring endogenous TPM3-TRKA fusion gene) cells were cultured in DMEM medium, supplemented with 10% fetal bovine serum and 100 U/mL of penicillin/streptomycin. 5000 cells were seeded in 384 well white plate for 24 hours before compounds treatment. Cell proliferation was measured using CellTiter-Glo luciferase-based ATP detection assay (Promega) following the manufactures's protocol after 72 hours incubation. […]
Catalogue of compounds with associated IC50
The reply should be a number in nM, with the unit left off.

| Compound | Recorded result |
| --- | --- |
| CC[C@@H]1CNC(=O)c2cnn3ccc(nc23)NCc2cc(F)ccc2O1 [Compound 27] | 53 |

For reference, reported IC50 for C[C@H]1Nc2ccn3ncc(c3n2)C(=O)N2CC[C@H](C2)Oc2ccc(F)cc21 [Compound 50] stands at 178

For reference, reported IC50 for CC[C@H]1COc2ccc(F)cc2[C@@H](CC)Nc2ccn3ncc(c3n2)C(=O)N1 [Compound 21] stands at 3

For reference, reported IC50 for C[C@H]1CNC(=O)c2cnn3ccc(nc23)N[C@H](C)c2cc(F)cnc2O1 [Compound 60] stands at 0.35

For reference, reported IC50 for C[C@H]1Nc2ccn3ncc(c3n2)C(=O)N[C@H]2CNC[C@@H]2Oc2ccc(F)cc21 [Compound 49] stands at 2410

For reference, reported IC50 for C[C@H]1Nc2ccn3ncc(c3n2)C(=O)N[C@@H]2CCC[C@@H]2Oc2ccc(F)cc21 [Compound 42] stands at 0.2

* * *

- System: essential thrombocythemia cell line SET-2 cells (harboring endogenous JAK2 point mutation)
- Experiment notes: Cell proliferation assay, SET-2 cells (CellTiter-Glo)
- Type: cell-based
- Condition description: Homo sapiens, 72 hours incubation, read-out: Cell Proliferation IC50 SET2
Catalogue of compounds with associated pIC50
Remember, pIC50 is on a log scale: it is -log10 of the molar concentration.

Worked examples, 5 compounds total:
| Compound | Attribute measured | Recorded result |
| --- | --- | --- |
| CC[C@@H]1COc2ccc(F)cc2[C@@H](C)Nc2ccn3ncc(c3n2)C(=O)N1 | pIC50 | 6.02 |
| Cc1cn2ncc3c2nc1N[C@H](C)c1cc(F)ccc1O[C@@H](C)CNC3=O | pIC50 | 5.97 |
| CC[C@H]1COc2ccc(F)cc2[C@@H](C)Nc2ccn3ncc(c3n2)C(=O)N1 | pIC50 | 5.86 |
| CC[C@H]1COc2ccc(F)cc2[C@@H](CC)Nc2ccn3ncc(c3n2)C(=O)N1 | pIC50 | 5.95 |
| CNC(=O)C1Nc2ccn3ncc(c3n2)C(=O)NC[C@H](C)Oc2ccc(F)cc21 (stereo partly drawn) | pIC50 | 5.97 |

Here's the next entry for you.
For reference, reported pIC50 for O=C1NCCOc2ccc(F)cc2[C@@H](CCO)Nc2ccn3ncc1c3n2 stands at 6.07

* * *

- Test system: Colorectal cell lines KM 12 (harboring endogenous TPM3-TRKA fusion gene)
- Experiment notes: Cell proliferation assay, KM12 cells (CellTiter-Glo)
- Format: cell-based
- Condition description: Homo sapiens, 72 hours incubation
pIC50: −log10 of the molar value.
Tick Satisfied if pIC50 is 9 or greater. Tick Not satisfied if pIC50 is less than 9.

Field: example entries. Status: answers known.
| Line notation | Category label |
| --- | --- |
| COC[C@@H]1CNC(=O)c2cnn3ccc(nc23)N[C@H](C)c2cc(F)ccc2O1 | Not satisfied |
| C[C@H]1Nc2ccn3ncc(c3n2)C(=O)N2CCC[C@H](C2)Oc2ccc(F)cc21 | Not satisfied |
| C[C@H]1Nc2ccn3ncc(c3n2)C(=O)NCCOc2ccccc21 | Not satisfied |
| CC[C@H]1CNC(=O)c2cnn3ccc(nc23)N[C@H](C)c2cc(F)ccc2O1 | Satisfied |
| CC[C@H]1COc2ccc(F)cc2[C@@H](C)Nc2ccn3ncc(c3n2)C(=O)N1 | Satisfied |

Query block: Hello, I need to know if C[C@H]1Nc2ccn3ncc(c3n2)C(=O)N[C@H](C(F)F)COc2ccc(F)cc21 has measured pIC50 not below 9. Thanks!
Result block: Satisfied

Query block: Hello, I need to know if C[C@H]1Nc2ccn3ncc(c3n2)C(=O)NC[C@H](CO)Oc2ccc(F)cc21 has measured pIC50 not below 9. Thanks!
Result block: Not satisfied

Query block: Hello, I need to know if C[C@H]1Nc2ccn3ncc(c3n2)C(=O)N[C@@H]2CCCC[C@H]2Oc2ccc(F)cc21 has measured pIC50 not below 9. Thanks!
Result block: Satisfied

Query block: Hello, I need to know if C[C@@H]1Nc2ccn3ncc(c3n2)C(=O)NC[C@H](C)Oc2ncc(F)cc21 has measured pIC50 not below 9. Thanks!
Result block: Not satisfied

Query block: Hello, I need to know if C[C@H]1CNC(=O)c2c[nH]c3ncc(nc23)N[C@H](C)c2cc(F)ccc2O1 has measured pIC50 not below 9. Thanks!
Result block: Not satisfied
